- procedure text: yeast display, Sf9 membrane polyspecificity reagent, FACS + sequencing; frameworks hold sequencing errors

sequence entry	polyreactivity (PSR sort gate)
QDQLVESGVGLVQPGGSLRLSCAASGITFRKYAMGWYRQAPGKERELVAAIRWSGTRTYYADSVKGRFTISRDNAKNTDYLQMNRLKPEDTAVYYCATVYGATPGRSGLDYWGQGTQVTVSS	high polyreactivity
QVQLVESGGGLVQAGGSLRLSCAASGRIFSTYVMGWYRQAPGKERELVAAITWSGGSTYYADSVKGRFTISRDNAKNTVYLQMNSLKPEDTAVYYCAADEIYRYGYWGQGTLVTVSS	high polyreactivity

----------
- procedure text: yeast display, Sf9 membrane polyspecificity reagent, FACS + sequencing; frameworks hold sequencing errors
measurement name: polyreactivity (PSR sort gate)

sequence entry	readout value
QVQLVESGGGLVQAGGSLRLSCAASGNIFFSNAMGWYRQAPGKERELLASISQSGGSTYYADSVKGRFTISRDNAKNTVYLQMNSLKPEDTAVYYCAATQVRRGPAWGRDYWGQGTQVTVSS	low polyreactivity
QVQLVESGGGLVQAGGSLRLSCAASGSTFPHYVMGWYRQAPGKERELVAGISWSGGSTYYADSVKGRFTISRDNAKNTVYLQMNSLKPEDTAVYYCAKVLTWRGYRYNYWGQGTQVTVSS	low polyreactivity
QVQLVESGGGLVQAGGRLRLSCAASGRTFGVYVMGWYRQAPGKERELVAAISSSGGLTYYADSVKGRFTISRDNAKNTVYLQMNSMKPEDTAVYYCNAVRRREERDGPPNPMDYWGQGTQVTVSS	high polyreactivity
QVQLGESGGGLVQAGGSLRLSCAASGGTFYYYAMGWYRHAPGKERELVATISYSGASTYYADSVKGRFTISRDNAKNTVYLQRNSLKPEDTAVYYCNARPYNHRYRAWMDYWGQGTQVTVSS	high polyreactivity
QVQLVESGGGLVQAGGSLRLSCAASGFTILRYAMGWDRQAPGTERELVAAIDWSGGSTYYADSVKGRFTISRDNAKNTVYLQMNSLKPEDTAVYYCNARTINVPSRFNYWGQGTQVTVSS	low polyreactivity
QVQLVESGGGLVQAGGSLRLSCAASGRIFSYYAMGWYRPAPGKERELVAAISSSGGSTYYADSVKGRFTISRDNAKNTVYLQMNSLKPEDTAVYYCRVYTRGEYYSWGQGTQVTVSS	high polyreactivity
QVHLVESGGGLVQAGGSLRLSCAASGSTFPVNAMGWYRQAPGKERELVAAIRSSTGRTYYADSVKGRFTISRDNAKNSVYLQMNSLKPEDTAVYNFAAEGDYYDFISPPLDYWGQGTQVTVSS	low polyreactivity
QVQLVESGGGLVQAGGSLRLSCAASGIIFGRNVMGWYRQAPGKERELVAAISWSGGSTYYADSVKGRFTISRDNAKNTVYLQMNSLKPEDTAVYYCAASYWWIPMEYWGQGTQVTVSS	high polyreactivity
QVQLVESGGGLVQAGGSLRLSCAASGSIFFPNAMGWYRQAPGKERELVAAINWSGDSTYYADSVKGRFTISRDNAKNTVYLQMNSLKPEDTAVYYCNATYPWFDYDYWGQGTQVTVSS	low polyreactivity
QVQLVESGGGLVQAGGSLRLSCAASGSTFVPYAMGWYRQAPGKERELVAAITTSGGNTYYADSVKGRFTISRDNAKNTVYLQMNSLKPEDTAVYYCAADTYRRFDYWGEGTQVTVSS	low polyreactivity
QVQLVESGGGVVQAGGSLRLSCAASGITFQYYDMGWFRPAPGKERELVAAISWSTDMTYADSVKGRFTISRDNAKNTDYLQMNSLKPEDTAVYYCAASTYEYTSYDYWGQGTQVTVSS	low polyreactivity
QVQLVESGGGLVQAGGSHRLSCAASGSIFSYYAMGWYRPAPGKERELVAAISWGDDSTYYAASVKGRFTISRDNEKNTVYLHMNSLKPEDTAVYYCAADRVGWYRTFDYWGQGSQVTVSS	low polyreactivity
QVQLVESGGGLVQAGGSLRLSCAASGSIFRKYPMGWYRQAPGKDTELVAAISKRGGSTYYADSVKGRFTISRDNAKNTVYLQMNSLKPEDTAVYYFNALRRYVSVRPTKSDYWGQGTQVTVSS	high polyreactivity
QVQLVESGGGLVQAGGSLRLSCAASGIIFVRNAMGWYRQAPGKERELVAAISRSGGSTYYADSVKGRFTISRDNAKNTVYLQMNSLKPEDTAVYYCAAVMRLSSGYDYWGQGTQVTVSS	high polyreactivity
QVQLVESGGGLVQAGGSLRLSCAASGSTLNYYAMAWYRQAPGKEMELVAAITWSGGSTSYADSVKGRFTISRDNAKNTVYLQMNSLKPEDTAVYYCATDFPTVQLYDTDWLSSDMGYWGQGTQVTVSW	low polyreactivity
QVQLVESGGGLVQAGGSLRLSCAASGRTFAQYVMGWYRQAPGTERELVAAISGIGGSTYYADSVKGRFTISRDNAKNTVYLQMNSLNPEDTAVYYCAVELYWYPGYDYWGQGTQVTVSS	low polyreactivity
QVQLVESGGGLVQAGGSLRLSCAASGGIFYYYTMGWYRQAPGKERELVAAINWSGGSTYYADSVKGRFTISRDNAKNTVYLQMNSLKPEDTAVYYCNAVYRHPVTYGYWGQGTQVTVSS	high polyreactivity
QVQLVESGGGLVQAGGSLRLSCAASGITFRWYAMGWYRQAPGKEREFVAAIDASGSTYYADSVKGRFTISRDNAKNTVYLQMNSLKPEDTAVYYCAADWDEYFGGDYWGQGTQVTVSS	low polyreactivity
QDQLVESWGCLVQAGGSLRLSCAASRRIFGGHTMGWYRQAPGKERELVAAITSGRSTTYADSVKGRFTISRDNAKNSVYFLMNSLKPEDTAVDYCAARYVYPNQWTPYIRPYDYWGQGTQVTVSS	low polyreactivity
QVQLQESGGGLVQAGGSLRLSCAASGYIILQYAMGWYRPAPGKERELVASIARGTSTYYADSVKGRFTISRDNAKNTVYLQMNSLKPEDTAVYYCAVIYSWGLWHDYWGQGTQVTVSS	high polyreactivity
QDQLVESGGGLVQAGGSLRLSCAASGRTFVSYAMGWYRQAPGKERELVAGISWSGDSTYYADSEKGRFTISRDNAKNTVYLQMNSLKPEDTAVYYCAAVQRTDRSAHYSWGQGTQVTLSS	low polyreactivity
